These measurements were taken from patent US10544143B2.

We begin with a simple list: items and their reported pIC50.
- measurement target: human TLR8 (Homo sapiens (Human))
- experiment summary: TLR8 inhibition reporter assay (HEK-Blue SEAP)
- protocol conditions: read-out: TLR8 IC50; HEK-Blue human TLR8 cells, R848 15.9 μM
Scale: pIC50 equals -log10([C]), with [C] in mol/L.

Study these solved cases before continuing.
Cc1c(-c2[nH]c3ccc(N4C[C@@H](C)N(C(=O)CCN5CCC5)C[C@@H]4C)nc3c2C(C)C)cn2ncnc2c1C: 8.85
Cc1c(-c2[nH]c3ccc(N4[C@@H]5CC[C@H]4CN(C(=O)CCN(C)C)C5)nc3c2C(C)C)cn2ncnc2c1C: 8.74
Cc1c(-c2[nH]c3ccc(N4CCN(C(=O)CN(C)C5COC5)CC4)nc3c2C(C)C)cn2ncnc2c1C: 8.92

Request the reported pIC50 associated with CCN(CC)CC(=O)N1C[C@H](C)N(c2ccc3[nH]c(-c4cn5ncnc5c(C)c4C)c(C(C)C)c3n2)C[C@H]1C
8.96

Request the reported pIC50 associated with Cc1c(-c2[nH]c3ccc(N4C[C@@H](C)N(CCC(N)=O)C[C@H]4C)nc3c2C(C)C)cn2ncnc2c1C
8.24

Request the reported pIC50 associated with Cc1c(-c2[nH]c3ccc(N4C[C@@H]5CC4CN5)nc3c2C(C)C)cn2ncnc2c1C
9.07

Request the reported pIC50 associated with Cc1c(-c2[nH]c3ccc(N4CCN(C(=O)CN5CCC(CO)CC5)CC4)nc3c2C(C)C)cn2ncnc2c1C
9.07

Request the reported pIC50 associated with Cc1c(-c2[nH]c3ccc(N4CCN(CCN(C)C)C(=O)C4)nc3c2C(C)C)cn2ncnc2c1C
6.71

---

- measurement target: human TLR9 (Homo sapiens (Human))
- Sequence (Q9NR96 26-1032): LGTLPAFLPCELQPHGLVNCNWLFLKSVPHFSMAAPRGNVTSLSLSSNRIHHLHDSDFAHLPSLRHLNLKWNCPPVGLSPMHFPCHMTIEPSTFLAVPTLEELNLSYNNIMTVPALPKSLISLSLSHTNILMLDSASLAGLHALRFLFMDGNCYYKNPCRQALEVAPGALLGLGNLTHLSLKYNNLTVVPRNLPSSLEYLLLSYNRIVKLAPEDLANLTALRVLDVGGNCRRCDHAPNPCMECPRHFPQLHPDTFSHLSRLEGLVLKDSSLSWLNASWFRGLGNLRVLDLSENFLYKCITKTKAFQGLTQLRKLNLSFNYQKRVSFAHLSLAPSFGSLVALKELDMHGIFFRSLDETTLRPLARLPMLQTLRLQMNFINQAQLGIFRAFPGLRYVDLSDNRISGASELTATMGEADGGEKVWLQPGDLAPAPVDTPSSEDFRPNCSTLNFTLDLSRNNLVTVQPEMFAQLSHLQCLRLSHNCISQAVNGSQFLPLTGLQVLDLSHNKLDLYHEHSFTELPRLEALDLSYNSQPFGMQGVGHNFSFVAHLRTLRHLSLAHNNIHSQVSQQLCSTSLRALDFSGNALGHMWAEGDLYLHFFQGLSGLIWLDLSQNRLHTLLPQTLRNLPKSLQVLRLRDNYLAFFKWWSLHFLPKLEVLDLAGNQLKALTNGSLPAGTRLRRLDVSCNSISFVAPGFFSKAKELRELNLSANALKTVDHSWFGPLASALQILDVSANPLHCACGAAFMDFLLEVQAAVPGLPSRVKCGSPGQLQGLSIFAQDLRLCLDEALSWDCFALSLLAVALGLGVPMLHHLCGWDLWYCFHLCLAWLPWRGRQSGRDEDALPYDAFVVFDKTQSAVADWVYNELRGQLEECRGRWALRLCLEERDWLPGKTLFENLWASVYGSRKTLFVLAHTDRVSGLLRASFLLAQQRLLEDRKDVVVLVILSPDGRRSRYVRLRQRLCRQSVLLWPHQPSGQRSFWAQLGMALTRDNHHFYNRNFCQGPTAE
- experiment summary: TLR9 inhibition reporter assay (HEK-Blue SEAP)
- protocol conditions: read-out: TLR9 IC50; HEK-Blue cells overexpressing human TLR9, SEAP reporter, ODN2006 5 nM
Recorded IC50 determines the group label, using lower range: < 1 µM; middle range: ≥ 1 µM and < 6 µM; upper range: ≥ 6 µM

Illustrative cases are given below, each with its answer.
Cc1cc(-c2[nH]c3ccc(C4CCNCC4)nc3c2C(C)C)cc(C)n1: lower range
COc1cc(-c2[nH]c3ccc(C4CC(NC(=O)CN(C)C)C4)nc3c2C(C)C)cn2ncnc12 (stereo not drawn) [Example 619]: lower range

Lab note: sort COc1cc(-c2[nH]c3ccc(C4CNC4)nc3c2C(C)C)cn2ncnc12 into the matching IC50 band.
middle range

---

- measurement target: human TLR8 (Homo sapiens (Human), UniProt Q9NR97)
- Sequence (Q9NR97 27-1041): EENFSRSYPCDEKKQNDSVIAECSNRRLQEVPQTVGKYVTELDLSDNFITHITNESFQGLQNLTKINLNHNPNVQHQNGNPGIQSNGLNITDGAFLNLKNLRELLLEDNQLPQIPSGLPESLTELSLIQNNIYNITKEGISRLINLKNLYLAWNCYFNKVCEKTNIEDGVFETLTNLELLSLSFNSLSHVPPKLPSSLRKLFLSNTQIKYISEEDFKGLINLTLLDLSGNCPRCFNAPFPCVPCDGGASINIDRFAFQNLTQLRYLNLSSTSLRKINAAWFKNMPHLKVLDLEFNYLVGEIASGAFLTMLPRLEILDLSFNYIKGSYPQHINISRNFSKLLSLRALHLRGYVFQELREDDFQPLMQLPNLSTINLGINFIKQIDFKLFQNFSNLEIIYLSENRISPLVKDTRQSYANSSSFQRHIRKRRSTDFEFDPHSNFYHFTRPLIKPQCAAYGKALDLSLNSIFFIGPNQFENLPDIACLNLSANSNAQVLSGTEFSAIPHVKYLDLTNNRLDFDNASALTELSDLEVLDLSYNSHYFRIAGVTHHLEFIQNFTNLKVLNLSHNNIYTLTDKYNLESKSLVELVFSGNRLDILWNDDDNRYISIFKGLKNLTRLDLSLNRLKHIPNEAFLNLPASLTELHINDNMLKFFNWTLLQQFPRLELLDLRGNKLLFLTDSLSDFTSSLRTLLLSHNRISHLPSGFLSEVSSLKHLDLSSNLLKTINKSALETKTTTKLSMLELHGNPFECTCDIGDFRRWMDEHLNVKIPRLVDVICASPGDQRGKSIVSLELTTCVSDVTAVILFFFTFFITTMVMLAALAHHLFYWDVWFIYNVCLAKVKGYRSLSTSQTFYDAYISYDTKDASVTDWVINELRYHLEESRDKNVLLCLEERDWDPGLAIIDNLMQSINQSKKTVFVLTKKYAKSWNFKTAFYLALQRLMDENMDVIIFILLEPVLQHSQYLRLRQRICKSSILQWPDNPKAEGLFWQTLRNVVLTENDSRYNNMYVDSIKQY
- experiment summary: TLR8 inhibition reporter assay (HEK-Blue SEAP);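 further: SEAP driven by IFN-β minimal promoter carrying NF-κB and AP-1 sites, compounds dosed 0.05 nM to 50 µM for 22 h, inhibition scaled between agonist-plus-DMSO and reference-inhibitor wells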
- protocol conditions: read-out: TLR8 IC50; HEK-Blue cells overexpressing human TLR8, R848 15.9 μM stimulation, SEAP reporter
result type: log10 IC50 (log10 of the value in nM)
Please keep in mind that the values are log10 of IC50 expressed in nM.

Study these solved cases before continuing.
COc1cc(-c2[nH]c3ccc(C4CCC(N(C)CCS(C)(=O)=O)CC4)nc3c2C(C)C)cn2ncnc12 (stereo not drawn) [Example 242]: 1.18
Cc1c(-c2[nH]c3ccc(N4CC(N(C)C(=O)CN(C)C)C4)nc3c2C(C)C)cn2ncnc2c1C [Example 19]: 1.86
COc1cc(-c2[nH]c3ccc(C4CCC(N5CCCC5)CC4)nc3c2C(C)C)cn2ncnc12 (stereo not drawn) [Example 192]: 1.28
COc1cc(-c2[nH]c3cc(F)c(C4CCC(NCC5(C)COC5)CC4)nc3c2C(C)C)cn2ncnc12 (stereo not drawn) [Example 342]: 0.59
COc1cc(-c2[nH]c3ccc(N4CC(NC5CCOCC5)C4)nc3c2C(C)C)cn2ncnc12: 0.43

Request the reported log10 IC50 associated with CC(C)c1c(-c2cc(CO)c3ncnn3c2)[nH]c2ccc(C3CCC(NCCC(F)(F)F)CC3)nc12 (stereo not drawn) [Example 307]
0.43

Request the reported log10 IC50 associated with Cc1c(-c2[nH]c3ccc(C4CCC(NCC5(S(C)(=O)=O)CC5)CC4)nc3c2C(C)C)cn2ncnc2c1C (stereo not drawn)
-0.15

Request the reported log10 IC50 associated with COc1cc(-c2[nH]c3ccc(N4CCN(C(=O)CCN(C)C)CC4)nc3c2C(C)C)cn2ncnc12
0.46

Request the reported log10 IC50 associated with COc1cc(-c2[nH]c3cc(C)c(C4CCC(N(C)C5COC5)CC4)nc3c2C(C)C)cn2ncnc12 (stereo not drawn) [Example 331]
1.53

Request the reported log10 IC50 associated with Cc1c(-c2[nH]c3ccc(C4CCC(NCCC(F)(F)F)CC4)nc3c2C(C)C)cn2ncnc2c1C (stereo not drawn) [Example 373]
0.92

Request the reported log10 IC50 associated with COc1cc(-c2[nH]c3cc(F)c(C4CCC(NC5COC5)CC4)nc3c2C(C)C)cn2ncnc12 (stereo not drawn) [Example 346]
0.78

Request the reported log10 IC50 associated with CNC1CCC(c2nc3c(C(C)C)c(-c4cc(OC)c5ncnn5c4)[nH]c3cc2F)CC1 (stereo not drawn) [Example 348]
0.92

Request the reported log10 IC50 associated with COc1cc(-c2[nH]c3ccc(C4CCC(N5CCCC5)CC4)nc3c2C(C)C)cn2ncnc12 (stereo not drawn) [Example 174]
1.57

Request the reported log10 IC50 associated with CC(C)c1c(-c2cn(CCS(C)(=O)=O)c3ncccc23)[nH]c2ccc(C3CCC(NC4CCCOC4)CC3)nc12 (stereo not drawn)
1.60

Request the reported log10 IC50 associated with COc1cc(-c2[nH]c3ccc(C4CCC(NCC5(S(C)(=O)=O)CC5)CC4)nc3c2C(C)C)cn2ncnc12 (stereo not drawn) [Example 219]
0.90
